# Tested on: Saccharomyces cerevisiae;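 further: PSI is a weighted mean of sequencing reads over stability bins, variants kept only with over 10 reads, mCherry proximal and sfGFP distal, peptide attached via GGGS linker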
# Procedure Summary: protein stability index of tFT-peptide fusion (C-terminal peptide) (PSI (0-1 scale)); higher = more stable (slower turnover)
# Assay Context: genetic background: wild type; temperature: 30 C
Tick T if protein stability index is 0.3 or greater. Tick F if protein stability index is less than 0.3.

• LLGGRVLWAWRV = F
• FPPHFLPLVFLS = F
• IVSFRLDLSLAV = T
• GGGVGGAVVLFW = T
• VARLGGRIGWEG = T
• LLLRQVFSLGVF = F
• VLLVSVFVATLL = F
• SYVVVFVIFCVG = F
• LFVFTYPFLSWL = T
• LMWVFPRVVWLY = F
• EWAILSLGVMCV = F
• WRGALHPTPVAA = F
• GQRIKWGPIYLT = F
• CFFLLLRVSLFP = F
• FQFTLWRTLLCS = F
• PYSLYASSSSPL = T
• HRNILSIIIKNL = F
• GLVCPWLIVRFV = F
• FFCVLGLSFFCL = T
• ILFVCVCVLHVG = F
• FCTSSRLLYCSA = F
• RQALYFLMICGL = T
• VKGYISLLLVLI = F
• WFCCAQRGVIVG = T
• VVATLRCLRCSV = F
• CVILVSFFCYSA = F
• CLFFLVYELSIL = F
• SSRRVVLPLLVA = F
• IILRPQYVHYFL = T
• NYVFALFYMVVA = F
• LGCFGSSFVFCC = F
• SCYDYVILLQLS = F
• VHGWRPLLFHTR = T
• VALSILCVFFFF = F
• SWIKRYEITCIL = T
• RRRRHVDHSTQR = T
